Target: P-glycoprotein (ABCB1) (Homo sapiens, UniProt P08183)
Sequence (P08183 whole entry): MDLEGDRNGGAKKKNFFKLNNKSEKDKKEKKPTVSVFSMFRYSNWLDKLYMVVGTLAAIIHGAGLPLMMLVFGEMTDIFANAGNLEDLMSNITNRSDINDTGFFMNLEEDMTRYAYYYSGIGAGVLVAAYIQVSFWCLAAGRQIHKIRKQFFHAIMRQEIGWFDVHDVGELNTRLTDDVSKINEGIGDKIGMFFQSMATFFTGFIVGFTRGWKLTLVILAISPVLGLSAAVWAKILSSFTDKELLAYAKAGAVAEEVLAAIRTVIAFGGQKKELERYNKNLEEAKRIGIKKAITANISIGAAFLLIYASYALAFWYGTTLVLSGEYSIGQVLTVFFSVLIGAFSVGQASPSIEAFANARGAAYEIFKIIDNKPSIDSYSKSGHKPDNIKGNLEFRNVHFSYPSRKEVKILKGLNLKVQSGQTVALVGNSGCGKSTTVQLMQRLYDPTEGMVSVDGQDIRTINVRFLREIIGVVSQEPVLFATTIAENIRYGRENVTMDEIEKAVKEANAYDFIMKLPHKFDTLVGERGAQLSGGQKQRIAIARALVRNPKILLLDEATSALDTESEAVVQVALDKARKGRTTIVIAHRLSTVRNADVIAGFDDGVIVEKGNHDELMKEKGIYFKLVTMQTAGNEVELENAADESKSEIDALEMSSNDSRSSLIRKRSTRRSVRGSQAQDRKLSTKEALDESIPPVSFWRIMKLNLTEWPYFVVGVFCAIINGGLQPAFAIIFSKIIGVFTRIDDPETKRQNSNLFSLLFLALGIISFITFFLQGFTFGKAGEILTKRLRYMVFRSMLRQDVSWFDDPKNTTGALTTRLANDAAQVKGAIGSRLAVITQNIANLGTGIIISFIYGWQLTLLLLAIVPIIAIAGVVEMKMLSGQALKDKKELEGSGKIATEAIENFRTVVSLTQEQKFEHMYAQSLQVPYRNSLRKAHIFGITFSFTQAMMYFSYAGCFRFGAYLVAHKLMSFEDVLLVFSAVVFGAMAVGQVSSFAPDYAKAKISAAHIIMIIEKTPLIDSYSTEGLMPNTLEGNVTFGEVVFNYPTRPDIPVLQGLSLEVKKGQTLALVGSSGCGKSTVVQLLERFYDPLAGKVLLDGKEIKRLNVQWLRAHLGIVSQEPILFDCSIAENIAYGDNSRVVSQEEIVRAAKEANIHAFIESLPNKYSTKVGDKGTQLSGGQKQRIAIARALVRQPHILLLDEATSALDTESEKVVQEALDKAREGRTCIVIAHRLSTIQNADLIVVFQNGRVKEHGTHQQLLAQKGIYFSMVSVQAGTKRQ
Assay: Inhibition of P-glycoprotein-mediated multidrug resistance in adriamycin-resistant human A2780 cells assessed as calcein accumulation at 2.5 ug/ml after 15 mins relative to control
Type: cell-based
Details: probe calcein, values are per cent of control
Overview of reported response, % of control at 0.25 h, 2.5 ug/ml across a group of molecules:
quantity: response, % of control at 0.25 h, 2.5 ug/ml (%)

INSERT INTO assay_data (chem_smiles, result_number) VALUES
  ('COc1cc([C@@H]2O[C@H](c3cc(OC)c4c(c3)OCO4)[C@@H](COC(C)=O)[C@@H]2COC(C)=O)cc(OC)c1O', 95),
  ('COc1cc([C@H]2O[C@@H](c3cc(OC)c4c(c3)OCO4)[C@@H](COC(C)=O)[C@@H]2CO)cc2c1OCO2', 85),
  ('COc1cc([C@@H]2O[C@H](c3cc(OC)c4c(c3)OCO4)[C@@H](COC(C)=O)[C@@H]2CO)cc(OC)c1OC', 105),
  ('CC(C)[C@@H](C)/C=C/[C@@H](C)[C@H]1CC[C@H]2[C@@]3(O)C=C[C@@]4(O)C[C@@H](O)CC[C@]4(C)[C@H]3CC[C@]12C', 106);

----------
Target: P-glycoprotein (ABCB1) (Homo sapiens, UniProt P08183)
Assay: Inhibition of P-glycoprotein-mediated multidrug resistance in adriamycin-resistant human A2780 cells assessed as calcein accumulation at 2.5 ug/ml after 15 mins relative to verapamil
Format: cell-based
Conditions: probe calcein
quantity: inhibition at 0.25 h, 2.5 ug/ml (%)

INSERT INTO results (chem_smiles, result_number) VALUES
  ('COc1cc([C@@H]2O[C@H](c3cc(OC)c4c(c3)OCO4)[C@@H](COC(C)=O)[C@@H]2CO)cc(OC)c1OC', 110),
  ('CC(C)[C@@H](C)/C=C/[C@@H](C)[C@H]1CC[C@H]2[C@@]3(O)C=C[C@@]4(O)C[C@@H](O)CC[C@]4(C)[C@H]3CC[C@]12C', 111),
  ('COc1cc([C@@H]2O[C@H](c3cc(OC)c4c(c3)OCO4)[C@@H](COC(C)=O)[C@@H]2COC(C)=O)cc(OC)c1O', 99),
  ('COc1cc([C@H]2O[C@@H](c3cc(OC)c4c(c3)OCO4)[C@@H](COC(C)=O)[C@@H]2CO)cc2c1OCO2', 89);
